Catalogue of pIC50 readings, one per entry.
Tested system: Human immunodeficiency virus type 1 integrase (Human immunodeficiency virus 1)
Assay procedure: Inhibitory concentration against HIV-1 integrase by strand transfer method
pIC50: −log10 of the molar value.

Example compounds with recorded pIC50:
Compound: CC1=NN(c2ccccc2)C(=O)C1/N=N/c1ccc(S(=O)(=O)Nc2nccc(C)n2)cc1 (stereo unspecified)
pIC50: 4.63
--
Compound: NS(=O)(=O)c1ccc(/N=N/C2Sc3nc4ccccc4n3C2=O)cc1 (stereo unspecified)
pIC50: 3.90
--
Compound: O=C(Nc1ccc(S(=O)(=O)Nc2ccc(/N=N/c3ccc(S(=O)(=O)Nc4nccs4)cc3)cc2)cc1)C(N1CC1)(N1CC1)N1CC1
pIC50: < 3.70

Dear colleague, please send me the reported pIC50 for CC(=O)C1(/N=N/c2ccc(S(=O)(=O)Nc3onc(C)c3C)cc2)CCOC1=O (stereo unspecified) when you can. 3.84

Dear colleague, please send me the reported pIC50 for NS(=O)(=O)c1ccc(NC(=O)/C=C/C(=O)O)cc1 when you can. < 3.70

Dear colleague, please send me the reported pIC50 for Cc1ccnc(NS(=O)(=O)c2ccc(N/N=C3/C(=N)C(C)C(=O)C(C)C3=O)cc2)n1 (stereo unspecified) when you can. < 3.70

Dear colleague, please send me the reported pIC50 for O=C(O)[C@H]1OC(n2cc([N+](=O)[O-])c(=O)[nH]c2=O)[C@H](O)[C@@H]1O (stereo partly specified) when you can. < 3.70

Dear colleague, please send me the reported pIC50 for CC(=O)Nc1cc(S(=O)(=O)O)cc2cc(S(=O)(=O)O)cc(O)c12 when you can. 6.54

Dear colleague, please send me the reported pIC50 for CC(=O)C1(/N=N/c2ccc(S(=O)(=O)Nc3ccccn3)cc2)CCOC1=O (stereo unspecified) when you can. < 3.70

Dear colleague, please send me the reported pIC50 for NNS(=O)(=O)c1ccc(OCC(=O)O)cc1 when you can. 5.06

Dear colleague, please send me the reported pIC50 for CC1=NN(c2ccccc2)C(=O)C1/N=N/c1ccc(S(=O)(=O)Nc2ncccn2)cc1 (stereo unspecified) when you can. < 3.70

Dear colleague, please send me the reported pIC50 for Nc1nc(N)c(/N=N/c2ccc(S(=O)(=O)NC(=O)c3ccccc3)cc2)c(O)n1 when you can. 4.02

Dear colleague, please send me the reported pIC50 for NS(=O)(=O)c1ccc(NC(=O)/C=C\C(=O)O)cc1 when you can. < 3.70

Dear colleague, please send me the reported pIC50 for CC(=O)OCC1OC(n2ccc(-n3cncn3)nc2=O)CC1N=[N+]=[N-] (stereo unspecified) when you can. < 3.70

Dear colleague, please send me the reported pIC50 for CCOC(=O)C(Cc1cn(S(=O)(=O)c2ccccc2)c2ccccc12)(NC(C)=O)C(=O)OCC when you can. < 3.70

Dear colleague, please send me the reported pIC50 for Cc1cc(C)nc(NS(=O)(=O)c2ccc(CN3C(=O)c4ccccc4C3=O)cc2)n1 when you can. < 3.70

###

Tested system: Human immunodeficiency virus type 1 integrase (Human immunodeficiency virus 1, UniProt Q7ZJM1)
Sequence (Q7ZJM1 whole entry): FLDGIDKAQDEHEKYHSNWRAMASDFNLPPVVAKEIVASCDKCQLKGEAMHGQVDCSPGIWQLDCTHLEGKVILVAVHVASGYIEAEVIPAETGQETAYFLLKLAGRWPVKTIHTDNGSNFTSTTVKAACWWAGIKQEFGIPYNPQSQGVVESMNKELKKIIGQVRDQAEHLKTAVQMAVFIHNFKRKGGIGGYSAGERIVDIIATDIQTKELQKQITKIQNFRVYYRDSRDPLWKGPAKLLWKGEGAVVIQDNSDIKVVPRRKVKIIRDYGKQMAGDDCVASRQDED
Assay procedure: Inhibitory concentration to inhibit HIV-1 integrase by 3' -processing method
Outcome measure: IC50

Example molecules with recorded IC50:
Molecule: CC(=O)Nc1cc2cc(NS(=O)(=O)c3cc(C(F)(F)F)cc(C(F)(F)F)c3)ccc2oc1=O
IC50: > 200 µM
--
Molecule: C=C1CC(c2ccc(S(=O)(=O)N3CCOCC3)cc2)OC1=O (configuration not stated)
IC50: > 200 µM
--
Molecule: CC(=O)Nc1cc(S(=O)(=O)O)cc2cc(S(=O)(=O)O)cc(O)c12
IC50: 0.47 µM
--
Molecule: CC(=O)Nc1ccc(N)c2cc(S(=O)(=O)O)ccc12
IC50: 3.4 µM
--
Molecule: O=C(CNC(=O)c1cnc2ccccc2n1)NCCCNC(=O)CNC(=O)c1cnc2ccccc2n1
IC50: > 200 µM
--
Molecule: Cc1csc(NS(=O)(=O)c2ccc(N/N=C3/C(=N)C(C)C(=O)C(C)C3=O)cc2)c1C (configuration not stated)
IC50: > 200 µM

Dear colleague, please send me the reported IC50 for CC(=O)NCCSS(=O)(=O)CCCCCS(=O)(=O)SCCNC(C)=O when you can. > 200 µM

Dear colleague, please send me the reported IC50 for NS(=O)(=O)c1ccc(NN=C2C(=O)N(c3ccccc3)N(c3ccccc3)C2=O)cc1 when you can. > 200 µM

Dear colleague, please send me the reported IC50 for CC1=NN(c2ccccc2)C(=O)C1/N=N/c1ccc(S(=O)(=O)Nc2ccccn2)cc1 (configuration not stated) when you can. > 200 µM

Dear colleague, please send me the reported IC50 for CC(=O)Nc1cccc2cc(S(=O)(=O)O)ccc12 when you can. 27.9 µM

Dear colleague, please send me the reported IC50 for CC1C(=N)/C(=N/Nc2ccc(S(=O)(=O)Nc3ncccn3)cc2)C(=O)C(C)C1=O (configuration not stated) when you can. > 200 µM

Dear colleague, please send me the reported IC50 for NS(=O)(=O)c1ccc(/N=N/C2Sc3nc4ccccc4n3C2=O)cc1 (configuration not stated) when you can. 209 µM

Dear colleague, please send me the reported IC50 for CC(=O)C1(/N=N/c2ccc(S(=O)(=O)Nc3onc(C)c3C)cc2)CCOC1=O (configuration not stated) when you can. 193 µM

Dear colleague, please send me the reported IC50 for CCOC(=O)N(CCCCCCNC(c1ccccc1)S(=O)(=O)O)c1ccccc1 (configuration not stated) when you can. > 200 µM

Dear colleague, please send me the reported IC50 for O=C(O)[C@H]1OC(n2cc([N+](=O)[O-])c(=O)[nH]c2=O)[C@H](O)[C@@H]1O (some centres not stated) when you can. > 200 µM

Dear colleague, please send me the reported IC50 for Cc1cc(C)nc(NS(=O)(=O)c2ccc(CN3C(=O)c4ccccc4C3=O)cc2)n1 when you can. > 200 µM

Dear colleague, please send me the reported IC50 for Cc1cc(C)nc(NS(=O)(=O)c2ccc(NC(=O)c3cccn4c(=O)c5ccccc5nc34)cc2)n1 when you can. 75.5 µM
